Data origin, for the record: patent US20230096028A1

Test system: PC-9 cells (EGFR Ex19Del)
Experiment: Potency Assay: pERK (SOS1 pERK IC50 Assay, AlphaLISA SureFire Ultra p-ERK1/2)
Type: cell-based
Details: Homo sapiens; PC-9 cells (EGFR Ex19Del), 1 hour incubation, AlphaLISA p-ERK1/2; read-out: SOS1 pERK IC50
value-type: IC50

compound	value-type	result
C[C@@H](Nc1nc(Cl)nc2c1CN(C(=O)c1ccc(OC(F)F)cn1)C2)c1cc(N)cc(C(F)(F)F)c1 [Example 61]	IC50	< 1000 nM

Parameter requested: IC50. Apply to each item below.
1. C[C@@H](Nc1nc(Cl)nc2c1CN(C(=O)N1CCc3ncccc31)C2)c1cccc(C(F)(F)F)c1 [Example 371]
2. C[C@@H](Nc1nc(Cl)nc2c1CN(C(=O)N1C[C@H]3CNCC[C@H]3C1)C2)c1cccc(C(F)(F)F)c1 [Example 378]
3. Cc1c([C@@H](C)Nc2nc(Cl)nc3c2CN(C(=O)N2CCOCC2)C3)cccc1C(F)(F)F [Example 477]

["< 1000 nM", "> 1000 nM", "< 1000 nM"]
